target: CPEB1 pS248 peptide (UniProt Q9BZB8, phosphoserine at 248); assay: ITC
pKd: −log10 of the molar value.
Readout Name: pKd

INSERT INTO measurements (binder, value_measured) VALUES
  ('MADEEKLPPGWEKRMSRSSGRVYYFNHITNASQWERPSGNS (domain or fragment) [Pin1 WW domain]', 4.32);
